Target: eqBuChE (Equus caballus)
Construct: butyrylcholinesterase (BuChE) from horse serum (C1057)
Sequence (P81908 whole entry): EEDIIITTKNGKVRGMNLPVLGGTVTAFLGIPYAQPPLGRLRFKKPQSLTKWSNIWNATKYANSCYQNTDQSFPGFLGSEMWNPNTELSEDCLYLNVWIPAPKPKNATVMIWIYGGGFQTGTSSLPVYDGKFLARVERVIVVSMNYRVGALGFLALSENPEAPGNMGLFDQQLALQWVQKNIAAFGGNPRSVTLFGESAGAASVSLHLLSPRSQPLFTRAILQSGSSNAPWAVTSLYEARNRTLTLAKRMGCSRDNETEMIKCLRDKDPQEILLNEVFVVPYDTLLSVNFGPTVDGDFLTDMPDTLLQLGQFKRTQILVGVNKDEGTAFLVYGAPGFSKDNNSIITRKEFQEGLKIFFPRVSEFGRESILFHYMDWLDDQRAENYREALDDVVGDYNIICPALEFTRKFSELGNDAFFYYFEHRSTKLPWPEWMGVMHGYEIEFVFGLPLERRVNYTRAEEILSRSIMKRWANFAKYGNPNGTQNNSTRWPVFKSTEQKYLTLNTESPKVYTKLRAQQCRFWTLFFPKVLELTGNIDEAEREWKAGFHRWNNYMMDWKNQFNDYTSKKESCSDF
Assay: biochemical
Settings: Table 1; preincubation 6 min, incubation 6 min, 37 °C; mean ± SD; read-out: IC50 BuChE
pIC50: −log10 of the molar value.
Hi there, I'd appreciate the recorded pIC50 for every entry that follows.

State its pIC50 on eqBuChE (Equus caballus): O=C(CC1c2ccccc2CCN1c1ccccc1)c1ccccc1 (centres unmarked)
5.08

// map COc1cc2c(cc1OC)C(CCC(=O)CCc1ccccc1)N(c1ccc(F)cc1)CC2 (centres unmarked) to recorded pIC50 (system: eqBuChE (Equus caballus))
< 5.00

Notebook entry, eqBuChE (Equus caballus) assay: pIC50 of COc1cc2c(cc1OC)C(CCC(=O)CCc1ccccc1)N(c1ccccc1)CC2 (centres unmarked) = ?
< 5.00

State its pIC50 on eqBuChE (Equus caballus): CC(=O)CC1c2ccccc2CCN1c1ccccc1 (centres unmarked)
< 5.00

Notebook: pull reported pIC50 for eqBuChE (Equus caballus), entry COc1cc2c(cc1OC)C(CC(C)=O)N(c1ccccc1)CC2 (centres unmarked)
< 5.00

Identify the measured pIC50 of N#CC1c2ccccc2CCN1c1ccccc1 (centres unmarked) for eqBuChE (Equus caballus).
< 5.00

Record lookup: for eqBuChE (Equus caballus), what pIC50 belongs to O=C(CCc1ccccc1)CCC1c2ccccc2CCN1c1ccccc1 (centres unmarked) ?
5.57

Provide the documented pIC50 with eqBuChE (Equus caballus) as the system for O=C(CCc1ccccc1)CCC1c2ccccc2CCN1c1ccc(F)cc1 (centres unmarked)
5.34

Under eqBuChE (Equus caballus): pIC50 value of COc1ccc(N2CCc3ccccc3C2CC(=O)c2ccccc2)cc1 (centres unmarked) ?
< 5.00

Observed pIC50 on eqBuChE (Equus caballus) for COc1cc2c(cc1OC)C(CCC(=O)c1ccccc1)N(c1ccc(F)cc1)CC2 (centres unmarked) , please.
< 5.00

Please state recorded pIC50 (tested on eqBuChE (Equus caballus)) of COc1cc2c(cc1OC)C(C#N)N(c1ccc(C)cc1)CC2 (centres unmarked)
< 5.00

What measured pIC50 is associated with c1ccc(N2CCc3ccccc3C2)cc1 [Compound 1a, N-phenyl-1,2,3,4-tetrahydroisoquinoline] on eqBuChE (Equus caballus)?
< 5.00

Hello, I am looking for reported pIC50 with eqBuChE (Equus caballus) for COc1cc2c(cc1OC)C(CC(=O)c1ccccc1)N(c1ccccc1)CC2 (centres unmarked) . Could you help?
< 5.00

Kindly state the measured pIC50 obtained for CC(=O)CC1c2ccccc2CCN1c1ccc(F)cc1 (centres unmarked) with eqBuChE (Equus caballus).
5.05

----------
Biological target: eeAChE (Electrophorus electricus, UniProt O42275)
Construct: purchased Sigma-Aldrich C3389
Sequence (O42275 24-633): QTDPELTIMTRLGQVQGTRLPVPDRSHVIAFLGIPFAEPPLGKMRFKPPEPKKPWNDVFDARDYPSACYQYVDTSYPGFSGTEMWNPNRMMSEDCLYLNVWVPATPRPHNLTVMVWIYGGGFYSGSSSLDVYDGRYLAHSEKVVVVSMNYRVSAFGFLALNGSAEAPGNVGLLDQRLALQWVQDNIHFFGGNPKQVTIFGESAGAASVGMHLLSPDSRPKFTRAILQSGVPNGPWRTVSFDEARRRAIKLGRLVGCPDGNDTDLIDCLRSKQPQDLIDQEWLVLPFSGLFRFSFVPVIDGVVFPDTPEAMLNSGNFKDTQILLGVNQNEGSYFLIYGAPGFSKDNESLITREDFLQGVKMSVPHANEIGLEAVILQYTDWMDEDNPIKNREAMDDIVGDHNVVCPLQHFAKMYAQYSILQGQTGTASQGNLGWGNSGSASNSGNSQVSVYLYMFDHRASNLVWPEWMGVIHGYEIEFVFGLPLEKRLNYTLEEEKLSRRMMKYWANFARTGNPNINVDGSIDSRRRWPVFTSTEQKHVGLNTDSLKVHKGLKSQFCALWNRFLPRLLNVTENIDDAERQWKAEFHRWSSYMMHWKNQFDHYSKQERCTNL
Experiment: biochemical
Assay type: biochemical
Settings: IC50(BChE)/IC50(AChE)
PROPERTY_NAME: Selectivity Index for AChE
Form: value (number only, do not type unit).

For O=C(CCc1ccccc1)CCC1c2ccccc2CCN1c1ccc(F)cc1 (stereo not shown) , what is its reported Selectivity Index for AChE?
1.55

GET /values?readout=Selectivity Index for AChE&item= COc1cc2c(cc1OC)C(CCC(=O)c1ccccc1)N(c1ccccc1)CC2 (stereo not shown)
1.18

Reported Selectivity Index for AChE for O=C(CC1c2ccccc2CCN1c1ccccc1)c1ccccc1 (stereo not shown) : what is it?
1.93

Selectivity Index for AChE for CC(=O)CC1c2ccccc2CCN1c1ccc(F)cc1 (stereo not shown) ?
1.63

Could you share which Selectivity Index for AChE value was measured for O=C(CCc1ccccc1)CCC1c2ccccc2CCN1c1ccccc1 (stereo not shown) ?
2.45

// lookup Selectivity Index for AChE for O=C(CCC1c2ccccc2CCN1c1ccccc1)c1ccccc1 (stereo not shown)
2.59

----------
Target: eqBuChE (Equus caballus)
Construct: butyrylcholinesterase (BuChE) from horse serum (C1057)
Assay: biochemical
Settings: Table 1; preincubation 6 min, incubation 6 min, 37 °C; mean ± SD; read-out: IC50 BuChE
PROPERTY_NAME: pIC50
Convention used: pIC50 is expressed as -log10 of the molar concentration.

GET /values?readout=pIC50&item= COc1cc2c(cc1OC)C(CCC(=O)c1ccccc1)N(c1ccccc1)CC2 (centres unmarked)
5.10

Need pIC50 of O=C(CCC1c2ccccc2CCN1c1ccccc1)c1ccccc1 (centres unmarked) , thanks.
5.20

----------
Molecular target: BuChE (Equus caballus, UniProt P81908)
Construct: butyrylcholinesterase (BuChE) from horse serum (C1057)
Sequence (P81908 whole entry): as the sequence (P81908 whole entry) above
Experiment: Kinetic study of BuChE inhibition (Lineweaver-Burk)
Conditions: preincubation 6 min, incubation 2 min
PROPERTY_NAME: pKi
For clarity, pKi is expressed as the negative log10 of concentration in mol/L.

Entry O=C(CCc1ccccc1)CCC1c2ccccc2CCN1c1ccccc1 (stereo not shown) , system BuChE (Equus caballus, UniProt P81908): what pKi was measured?
5.98

----------
PROPERTY_NAME: pKi
Note on pKi: it is the negative log10 of concentration, concentration in mol/L.

Request: pKi, test system UniProt O42275, entry O=C(CCc1ccccc1)CCC1c2ccccc2CCN1c1ccccc1 (centres unmarked)
5.97

Param readout = pKi; param system = UniProt O42275; param query = COc1cc2c(cc1OC)C(CC(=O)c1ccccc1)N(c1ccccc1)CC2 (centres unmarked) ; response: value
5.75

----------
What IC50 was measured for each of the following?
Use µM as the unit, but write only the number.

Request body: readout IC50, system eeAChE (Electrophorus electricus), query COc1ccc(N2CCc3ccccc3C2CC(=O)c2ccccc2)cc1 (stereo not drawn) . Return the value.
9.05

Form field: IC50 recorded for COc1cc2c(cc1OC)C(CCC(=O)CCc1ccccc1)N(c1ccccc1)CC2 (stereo not drawn) with eeAChE (Electrophorus electricus) (enter value)
4.02

# value lookup — system eeAChE (Electrophorus electricus), readout IC50, item O=C(CC1c2ccccc2CCN1c1ccccc1)c1ccccc1 (stereo not drawn)
4.29

Request: IC50, test system eeAChE (Electrophorus electricus), entry COc1cc2c(cc1OC)C(CC(=O)c1ccccc1)N(c1ccc(F)cc1)CC2 (stereo not drawn)
4.89

Please tell me: IC50 of O=C(CCc1ccccc1)CCC1c2ccccc2CCN1c1ccc(F)cc1 (stereo not drawn) , system eeAChE (Electrophorus electricus)?
2.91

Request: IC50, test system eeAChE (Electrophorus electricus), entry CC(=O)CC1c2ccccc2CCN1c1ccc(F)cc1 (stereo not drawn)
5.46

Give IC50 (eeAChE (Electrophorus electricus)) of the following molecule: COc1cc2c(cc1OC)C(CC(C)=O)N(c1ccccc1)CC2 (stereo not drawn)
5.04

Hi! What's the reported IC50 for O=C(CCC1c2ccccc2CCN1c1ccccc1)c1ccccc1 (stereo not drawn) on eeAChE (Electrophorus electricus)?
2.42

What is its IC50 for eeAChE (Electrophorus electricus)? Entry: O=C(CCc1ccccc1)CCC1c2ccccc2CCN1c1ccccc1 (stereo not drawn)
1.11

Checklist item: IC50 tested on eeAChE (Electrophorus electricus), entry COc1cc2c(cc1OC)C(CCC(=O)c1ccccc1)N(c1ccccc1)CC2 (stereo not drawn) , value?
6.78

# query: IC50 | item COc1cc2c(cc1OC)C(CC(=O)c1ccccc1)N(c1ccccc1)CC2 (stereo not drawn) | system: eeAChE (Electrophorus electricus)
1.95

----------
Test: logP determination by UPLC
Assay type: physicochemical
Details: reversed-phase ACQUITY UPLC BEH C18 column; UPLC method
Answer each item with its documented chromatographic logP.
Provide a numeric answer; units are not to be included.

Bench note: what chromatographic logP did O=C(CCc1ccccc1)CCC1c2ccccc2CCN1c1ccccc1 (stereo not drawn) show?
3.78

Any idea what chromatographic logP was measured for O=C(CCC1c2ccccc2CCN1c1ccccc1)c1ccccc1 (stereo not drawn) ?
3.66

Would you kindly share the measured chromatographic logP for COc1cc2c(cc1OC)C(CC(=O)c1ccccc1)N(c1ccccc1)CC2 (stereo not drawn) ?
3.39

----------
Target: eqBuChE (Equus caballus)
Construct: butyrylcholinesterase (BuChE) from horse serum (C1057)
Assay: biochemical
Conditions: Table 1; preincubation 6 min, incubation 6 min, 37 °C; mean ± SD; read-out: IC50 BuChE
pIC50: −log10 of the molar value.
Exercise: state measured pIC50 for each of the compounds provided.

// query pIC50 value for entry COc1cc2c(cc1OC)C(C#N)N(c1ccc(F)cc1)CC2 (stereo not drawn)
< 5.00

Could you share which pIC50 value was measured for COc1cc2c(cc1OC)C(CC(=O)c1ccccc1)N(c1ccc(F)cc1)CC2 (stereo not drawn) ?
< 5.00

Requested field: pIC50. Item: COc1cc2c(cc1OC)C(CC(C)=O)N(c1ccc(F)cc1)CC2 (stereo not drawn)
< 5.00

src = paper PMC10816625
